// data source = the DeepSol protein solubility set

Test: soluble on expression in E. coli; label from the status in PepcDB or PDB records
readout.type: soluble on expression in E. coli

• MDGCYGISDSVGMITQPYRLYVERTDCKKNMARYYAMEITTTLFGDACLTRSWGRIGKRGQSKMHHFEREEEAVDLFLTLTRQKRSRGYRPATGRDRGLEHHHHHH = not soluble
• MTATSDKVLKIQLRSASATVPTKGSATAAGYDIYASQDITIPAMGQGMVSTDISFTVPVGTYGRIAPRSGLAVKNGIQTGAGVVDRDYTGEVKVVLFNHSQRDFAIKKGDRVAQLILEKIVDDAQIVVVDSLEESARGAGGFGSTGN = not soluble
